The reported numbers originate from the supplement of paper PMC4466140.

systemName: CaHof1
methodSummary: SPOT peptide array binding signal intensity (averaged, normalized) (arbitrary units (background-subtracted, floor 0; scale differs between SH3 domains)); higher = stronger binding of the SH3 domain to the peptide
quantityKind: SPOT peptide array binding signal intensity
Answers are plain numbers.

The cases that follow already have their SPOT peptide array binding signal intensity on record.
TTAPALPSLPPPPLL : 873
NILKRRPLKLEAPSK : 0.25
PLRRTVMSLPGNHDI : 0.375
MSPLGAPPPPPHKDH : 0.75
LYEAMPPTLPHRDWK : 0.5
HRRRRVFSIPSLKSI : 0.5

Give SPOT peptide array binding signal intensity for all binders that follow.
1. LTRRFPFLFPFDTRM
2. QNTPPLPPKPKSPHL
3. KRKRRLPVSEDTNTK
4. WTQRRGPLVVYAEDN
5. PSTMDFPKLPSFQNS
6. HPRFVSPRIPSRIVK
7. SRQAIPPPVPNRPGG
8. QPQRTAPKPPISAPR

A)
1. 0.5
2. 3
3. 0.5
4. 1.5
5. 1
6. 2
7. 1
8. 0.5

Give SPOT peptide array binding signal intensity for all binders that follow.
1. DHPKGPPPPPPPDEK
2. STKKPRPPVKSKPKH
3. VFQFQMPTTPISTKM
4. TKHKAPPPPPPTAET
5. PAPPPPPRASRPTPN
6. RPPRPPPKPLHLRTE

A)
[2.5, 1.25, 0.5, 1, 17.5, 1]
